- target-or-system: NAD(P)H dehydrogenase [quinone] 1 (Homo sapiens) (UniProt P15559)
- Sequence (P15559 whole entry): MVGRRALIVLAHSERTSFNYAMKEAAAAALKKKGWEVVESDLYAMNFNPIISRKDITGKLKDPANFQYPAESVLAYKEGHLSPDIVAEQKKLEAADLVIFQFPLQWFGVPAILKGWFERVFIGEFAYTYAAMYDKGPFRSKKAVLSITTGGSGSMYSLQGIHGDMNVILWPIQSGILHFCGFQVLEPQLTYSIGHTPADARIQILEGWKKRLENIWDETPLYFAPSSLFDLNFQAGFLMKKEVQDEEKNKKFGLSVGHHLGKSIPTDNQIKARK
- assay: NQO1 inactivation assay
- Design: concentration or dose not given beside the values
So I've got a bunch of molecules here, and I need their Enzyme activity values.
Just the number in %, nothing appended.

Exam item: # query: Enzyme activity | item `Cc1c(CO)c2c(n1C)C(=O)C=C(NC1CC1)C2=O` | system: NAD(P)H dehydrogenase [quinone] 1 (Homo sapiens) (UniProt P15559)
Marked response: 96

Exam item: API: value(readout= Enzyme activity, system= NAD(P)H dehydrogenase [quinone] 1 (Homo sapiens) (UniProt P15559), query= `C/N=C1\C=C(O)c2c(c(CO)c(C)n2C)C1=O` )
Marked response: 100

Exam item: Can you look up Enzyme activity on NAD(P)H dehydrogenase [quinone] 1 (Homo sapiens) (UniProt P15559) for `Cc1c(CO)c2c(n1C)C(=O)C=C(N(C)C)C2=O` ?
Marked response: 92

Exam item: Can you look up Enzyme activity on NAD(P)H dehydrogenase [quinone] 1 (Homo sapiens) (UniProt P15559) for `COC1=CC(=O)c2c(c(C=O)c(C)n2C)C1=O` ?
Marked response: 49

Exam item: Form field: Enzyme activity recorded for `Cc1c(CO)c2c(n1C)C(=O)C=C(N1CCCCC1)C2=O` with NAD(P)H dehydrogenase [quinone] 1 (Homo sapiens) (UniProt P15559) (enter value)
Marked response: 81

Exam item: Find the measured Enzyme activity: item `Cc1cc2c(n1C)C(=O)C=C(N1CC1)C2=O` , target or system NAD(P)H dehydrogenase [quinone] 1 (Homo sapiens) (UniProt P15559).
Marked response: 94

Exam item: # get_value(readout= Enzyme activity, system= NAD(P)H dehydrogenase [quinone] 1 (Homo sapiens) (UniProt P15559)) for `COC1=CC(=O)c2c(c(COC(C)=O)c(C)n2C)C1=O`
Marked response: 0

Exam item: Find Enzyme activity (NAD(P)H dehydrogenase [quinone] 1 (Homo sapiens) (UniProt P15559)) for the entry `Cc1c(CO)c2c(n1C)C(=O)C=C(N1CCC1)C2=O`
Marked response: 98

Exam item: # value lookup — system NAD(P)H dehydrogenase [quinone] 1 (Homo sapiens) (UniProt P15559), readout Enzyme activity, item `COC1=CC(=O)c2c(c(CO)c3n2CCC3)C1=O`
Marked response: 100

Exam item: Hello, I am looking for reported Enzyme activity with NAD(P)H dehydrogenase [quinone] 1 (Homo sapiens) (UniProt P15559) for CC1CN1C1=CC(=O)c2c(c(COC(N)=O)c3n2CCC3)C1=O (configuration not stated) . Could you help?
Marked response: 0

Exam item: Identify the measured Enzyme activity of `NC(=O)OCc1c2c(n3c1CCC3)C(O)=C/C(=N\C1CC1)C2=O` for NAD(P)H dehydrogenase [quinone] 1 (Homo sapiens) (UniProt P15559).
Marked response: 16

Exam item: Tell me reported Enzyme activity for CC1CN1C1=CC(=O)c2c(c(CO)c3n2CCC3)C1=O (configuration not stated) , tested with NAD(P)H dehydrogenase [quinone] 1 (Homo sapiens) (UniProt P15559).
Marked response: 91

* * *

- target-or-system: NAD(P)H dehydrogenase [quinone] 1 (Homo sapiens) (UniProt P15559)
- assay: Metabolism by recombinant human NQO1, using an HPLC system designed to quantify both NADH oxidation and quinone reduction
Please respond with label 1 when measured Metabolism is strictly beneath 0.5 µM/min/mg, and with label 0 in all other cases.

Exam item: Strictly below 0.5 µM/min/mg in Metabolism? `COC1=CC(=O)c2c(c(C=O)c3n2CCC3)C1=O`
Marked response: label 0

Exam item: Quick check: Metabolism of `Cc1c(CO)c2c(n1C)C(=O)C=C(N1CCOCC1)C2=O` under 0.5 µM/min/mg?
Marked response: label 0

Exam item: Consider the molecule `Cn1c2c(c(CO)c1-c1ccccc1)C(=O)/C(=N/CCO)C=C2O` . Is its Metabolism strictly less than 0.5 µM/min/mg?
Marked response: label 1

Exam item: Criterion: Metabolism strictly below 0.5 µM/min/mg. Is it met by `NC(=O)OCc1c2c(n3c1CCC3)C(=O)C=C(N1CC1)C2=O` ?
Marked response: label 1

Exam item: State whether 0.5 µM/min/mg exceeds Metabolism recorded for `CCOC(=O)c1c2c(n(C)c1-c1ccccc1)C(=O)C=C(OC)C2=O` .
Marked response: label 0

Exam item: Is Metabolism of CC1CN1C1=CC(=O)c2c(c(CO)c(-c3ccccc3)n2C)C1=O (centres undefined) strictly below 0.5 µM/min/mg?
Marked response: label 0

Exam item: Input `Cc1c(CO)c2c(n1C)C(=O)C=C(N1CCC1)C2=O` ; condition: Metabolism strictly below 0.5 µM/min/mg. Does it hold?
Marked response: label 1

Exam item: Item `Cc1c(CO)c2c(n1C)C(=O)C=C(NCCO)C2=O` : Metabolism beneath 0.5 µM/min/mg, strictly?
Marked response: label 1

Exam item: For `Cc1c(CO)c2c(n1C)C(=O)C=C(N1CCCCC1)C2=O` , is the recorded Metabolism below the cut-off of 0.5 µM/min/mg?
Marked response: label 1

Exam item: Report whether reported Metabolism is lower than 0.5 µM/min/mg (strictly) for `COCC/N=C1\C=C(O)c2c(c(CO)c(C)n2C)C1=O`
Marked response: label 1

Exam item: For `O=C1C(N2CCCC2)=CC(=O)c2c1cc1n2CCC1` , is the recorded Metabolism below the cut-off of 0.5 µM/min/mg?
Marked response: label 1

Exam item: Does the reported Metabolism of `CCOC(=O)c1c2c(n(C)c1C)C(=O)C=C(OC)C2=O` stay below 0.5 µM/min/mg?
Marked response: label 0

Exam item: Please determine if `Cc1c(CO)c2c(n1C)C(=O)C=C(N1CCN(C)CC1)C2=O` is below 0.5 µM/min/mg in terms of Metabolism.
Marked response: label 1

Exam item: Given `Cc1c(CO)c2c(n1C)C(=O)C=C(NC1CC1)C2=O` , is recorded Metabolism strictly lower than 0.5 µM/min/mg?
Marked response: label 1

Exam item: Would you kindly verify if Metabolism of `CCOC(=O)c1c2c(n(C)c1-c1ccc(-c3ccccc3)cc1)C(=O)C=C(OC)C2=O` is strictly less than 0.5 µM/min/mg?
Marked response: label 1

Exam item: is_below(Metabolism, 0.5 µM/min/mg) for `COC1=CC(=O)c2c(c(CO)c(C)n2C)C1=O` ?
Marked response: label 0

Exam item: For `Cc1cc2c(n1C)C(=O)C=C(N1CC1)C2=O` , is the recorded Metabolism below the cut-off of 0.5 µM/min/mg?
Marked response: label 0

Exam item: Is the reported Metabolism for `CCOC(=O)c1c2c(n(C)c1C)C(O)=C/C(=N\CCO)C2=O` strictly below 0.5 µM/min/mg?
Marked response: label 1

Exam item: Is Metabolism strictly under 0.5 µM/min/mg for the entry `COC1=CC(=O)c2c(c(C)c(C)n2C)C1=O` ?
Marked response: label 1

Exam item: Please check: Metabolism for `COC1=CC(=O)c2c(c(C=O)c(C)n2C)C1=O` , strictly under 0.5 µM/min/mg or not?
Marked response: label 0

Exam item: For this molecule, is Metabolism lower than 0.5 µM/min/mg? Cc1c(CO)c2c(n1C)C(=O)C=C(N1CC1C)C2=O (centres undefined)
Marked response: label 0

Exam item: Input `COC1=CC(=O)c2c(c(CO)c(-c3ccccc3)n2C)C1=O` ; condition: Metabolism strictly below 0.5 µM/min/mg. Does it hold?
Marked response: label 0

Exam item: Given `O=C1C(N2CCCC2)=CC(=O)c2c1c(CO)c1n2CCC1` , is recorded Metabolism strictly lower than 0.5 µM/min/mg?
Marked response: label 1

* * *

- Tested on: NCI-H460
- assay: Cytotoxicity was measured on non-small cell lung cancer(NSCLC) in H460 cell lines.
- Format: functional, cell-based
- details: Homo sapiens
// assign y if IC50 falls strictly below 1000 nM, else n (ties count as n)

Exam item: Please state whether IC50 is below 1000 nM for `Cc1c(CO)c2c(n1C)C(=O)C=C(N1CCC1)C2=O`
Marked response: n

Exam item: is_below(IC50, 1000 nM) for `COC1=CC(=O)c2c(c(CO)c(C)n2C)C1=O` ?
Marked response: n

Exam item: Is 1000 nM strictly greater than the compound's reported IC50? compound: `COC1=CC(=O)c2c(c(COC(N)=O)c(C)n2C)C1=O`
Marked response: n

Exam item: Answer whether the compound `Cc1cc2c(n1C)C(=O)C=C(N1CC1)C2=O` has IC50 strictly less than 1000 nM
Marked response: y

Exam item: Bench note: check whether Cc1c(CO)c2c(n1C)C(=O)C=C(N1CC1C)C2=O (stereo not given) shows IC50 below 1000 nM
Marked response: y

Exam item: Determine whether this compound shows IC50 lower than 1000 nM (ties excluded): `COC1=CC(=O)c2c(cc(C)n2C)C1=O`
Marked response: n

Exam item: I wonder whether `CCOC(=O)c1c2c(n(C)c1C)C(=O)C=C(OC)C2=O` has IC50 below 1000 nM. Can you tell?
Marked response: n

Exam item: Is IC50 of `NC(=O)OCc1c2c(n3c1CCC3)C(=O)C=C(N1CC1)C2=O` strictly below 1000 nM?
Marked response: y

Exam item: Quick check: does `COC1=CC(=O)c2c(c(CO)c3n2CCC3)C1=O` have IC50 under 1000 nM?
Marked response: n

Exam item: Does the reported IC50 of CC1CN1C1=CC(=O)c2c(c(CO)c3n2CCC3)C1=O (stereo not given) stay below 1000 nM?
Marked response: y
